For each of the compounds below, state its pIC50.
- Test system: COX-2
- experimental_protocol: Recovery of COX activity (COX-2 expression) in aspirin-pretreated rat alveolar macrophages
- Type: cell-based
- condition_set: read-out: IC50 suppression of LPS-induced expression of COX-2
Numbers only, as −log10 of the molar value.

O=c1c(-c2ccc(O)cc2)coc2cc(O)cc(O)c12 ... 4.66

Prompt line: # get_value(readout= pIC50, system= COX-2) for CO[C@H]1[C@@H](OC)C[C@H](C)[C@@H](OC)C2=CC(=O)C=C(NC(=O)/C(C)=C/C=C\[C@H](OC)[C@@H](OC(N)=O)/C(C)=C/[C@@H]1C)C2=O
Response line: 7.28
